- Target entity: STAT6 (Homo sapiens, UniProt P42226)
- Test details: Fluorescence polarization competition with FAM-labelled IL-4Rα Tyr631 phosphopeptide for binding to STAT6
- Measurement conditions: select phosphate-containing STAT6 inhibitors; competition with FAM-Ala-pTyr-Lys-Pro-Phe-Gln-Asp-Leu-Ile-NH2
Readout: pIC50
The quantity pIC50 is defined as the negative base-10 logarithm of the molar concentration.

Simply: C/C(=C\C(=O)NC1CCc2cccc3c2N(C1=O)[C@H](C(=O)N(C)c1ccccc1)C3)c1ccc(OP(=O)(O)O)cc1 (some centres unmarked) [PM-34I] , STAT6 (Homo sapiens, UniProt P42226), pIC50 = 6.55

Value (pIC50, STAT6 (Homo sapiens, UniProt P42226)) for record C/C(=C\C(=O)N[C@H](C(=O)N1CCC[C@H]1C(=O)N1CCc2ccccc21)C(C)(C)C)c1ccc(OP(=O)(O)O)cc1 [PM-59I] = 6.59

The compound C/C(=C\C(=O)N[C@H]1CCCCN(CC(=O)N(C)c2ccccc2)C1=O)c1ccc(OP(=O)(O)O)cc1 [PM-28I] on STAT6 (Homo sapiens, UniProt P42226): pIC50 was 6.20

The recorded pIC50 with STAT6 (Homo sapiens, UniProt P42226) for C/C(=C\C(=O)N[C@H](C(=O)N1CCC[C@H]1C(=O)N1CCOCC1)C(C)(C)C)c1ccc(OP(=O)(O)O)cc1 [PM-67I-B] was 6.99

Given the compound C/C(=C\C(=O)N[C@H](C(=O)N1CCC[C@H]1C(=O)N1CCN(C)CC1)C(C)(C)C)c1ccc(OP(=O)(O)O)cc1 [PM-67I-C] and test system STAT6 (Homo sapiens, UniProt P42226), the measured pIC50 is 5.72

Fill in: STAT6 (Homo sapiens, UniProt P42226) pIC50 for C/C(=C\C(=O)N[C@H](C(=O)N1CCC[C@H]1C(=O)N1CCCCC1)C(C)(C)C)c1ccc(OP(=O)(O)O)cc1 [PM-67I-A] = 6.43

Result for C/C(=C\C(=O)N[C@H](C(=O)NC1CCCCN(c2ccccc2)C1=O)C(C)(C)C)c1ccc(OP(=O)(O)O)cc1 (some centres unmarked) [PM-60I] , tested on STAT6 (Homo sapiens, UniProt P42226), pIC50: 5.63

Observed pIC50, STAT6 (Homo sapiens, UniProt P42226), C/C(=C\C(=O)N[C@H](C(=O)N1CCC[C@H]1/C=C/CCc1ccccc1)C(C)(C)C)c1ccc(OP(=O)(O)O)cc1 [PM-9I] : 6.11

Note to self: pIC50 of C/C(=C\C(=O)N[C@H](C(=O)N1CCC[C@H]1C(=O)N1CCCc2ccccc21)C(C)(C)C)c1ccc(OP(=O)(O)O)cc1 [PM-87I] with STAT6 (Homo sapiens, UniProt P42226) was 6.62

Reported STAT6 (Homo sapiens, UniProt P42226) pIC50 for item C/C(=C\C(=O)N[C@H](C(=O)N1CCC[C@H]1CCCCc1ccccc1)C(C)(C)C)c1ccc(OP(=O)(O)O)cc1 [PM-10I] was 5.68

Tested on STAT6 (Homo sapiens, UniProt P42226): C/C(=C\C(=O)N[C@H](C(=O)N1CCC[C@H]1C(=O)N1CCc2ccccc2C1)C(C)(C)C)c1ccc(OP(=O)(O)O)cc1 [PM-71-A] . Observed pIC50: 7.30

====

Field: IC50. Provide a value for each of the compounds that follow.
- Target entity: STAT6 (Homo sapiens)
- Test details: Inhibition of IL-4 (and IL-13) stimulated phosphorylation of STAT6 in Beas-2B cells, western blot
- Assay type: cell-based
- Design: endogenous in cells; host or cells: Beas-2B immortalized human airway cells
- Measurement conditions: dose response

GET /values?item= CC(=CC(=O)NC1CCCCN(CC(=O)N(C)c2ccccc2)C1=O)c1ccc(C(F)(F)P(=O)(OCOC(=O)C(C)(C)C)OCOC(=O)C(C)(C)C)cc1 (stereo not drawn) [PM-43I] &system= STAT6 (Homo sapiens) returns IC50: 1000 to 2500 nM

Measured IC50 (STAT6 (Homo sapiens)), entry C/C(=C\C(=O)N[C@H](C(=O)N1CCC[C@H]1C(=O)N1CCc2ccccc21)C(C)(C)C)c1ccc(C(F)(F)P(=O)(OCOC(=O)C(C)(C)C)OCOC(=O)C(C)(C)C)cc1 [PM-63I] : 50 to 500 nM

Case C/C(=C\C(=O)N[C@H](C(=O)N1CCC[C@H]1C(=O)N1CCCCc2ccccc21)C(C)(C)C)c1ccc(C(F)(F)P(=O)(OCOC(=O)C(C)(C)C)OCOC(=O)C(C)(C)C)cc1 [PM-80I] , STAT6 (Homo sapiens), IC50 recorded as 50 to 500 nM

====

- Target entity: UniProt:P42226
- Sequence (P42226 1-847): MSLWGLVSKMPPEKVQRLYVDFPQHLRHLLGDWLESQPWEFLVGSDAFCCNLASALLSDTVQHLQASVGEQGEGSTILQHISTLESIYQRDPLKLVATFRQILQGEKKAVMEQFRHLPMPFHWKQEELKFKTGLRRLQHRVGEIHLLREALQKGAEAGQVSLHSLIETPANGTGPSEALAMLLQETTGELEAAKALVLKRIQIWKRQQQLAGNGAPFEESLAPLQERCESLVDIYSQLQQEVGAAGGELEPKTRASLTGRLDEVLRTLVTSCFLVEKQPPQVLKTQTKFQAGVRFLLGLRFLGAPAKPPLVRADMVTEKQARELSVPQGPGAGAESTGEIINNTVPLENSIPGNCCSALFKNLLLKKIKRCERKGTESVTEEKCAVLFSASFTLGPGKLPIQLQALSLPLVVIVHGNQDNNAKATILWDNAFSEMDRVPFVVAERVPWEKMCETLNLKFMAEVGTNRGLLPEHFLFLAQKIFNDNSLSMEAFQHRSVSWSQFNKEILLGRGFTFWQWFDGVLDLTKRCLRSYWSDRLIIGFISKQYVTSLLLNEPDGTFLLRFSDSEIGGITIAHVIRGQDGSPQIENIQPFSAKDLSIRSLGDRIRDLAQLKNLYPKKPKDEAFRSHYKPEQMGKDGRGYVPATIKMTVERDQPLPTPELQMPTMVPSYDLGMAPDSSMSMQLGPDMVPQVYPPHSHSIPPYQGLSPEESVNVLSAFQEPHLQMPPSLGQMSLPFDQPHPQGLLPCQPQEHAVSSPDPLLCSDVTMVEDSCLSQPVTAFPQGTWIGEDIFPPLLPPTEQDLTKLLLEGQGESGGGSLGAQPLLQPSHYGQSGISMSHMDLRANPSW
- Test details: Inhibition of IL-4 (and IL-13) stimulated phosphorylation of STAT6 in Beas-2B cells, western blot
- Assay type: cell-based
- Parameters: endogenous in cells; host or cells: Beas-2B immortalized human airway cells
- Measurement conditions: dose response
pIC50: −log10 of the molar value.
Readout: pIC50

# lookup: C/C(=C\C(=O)N[C@H](C(=O)N1CCC[C@H]1C(=O)N1CCc2ccccc2C1)C(C)(C)C)c1ccc(C(F)(F)P(=O)(OCOC(=O)C(C)(C)C)OCOC(=O)C(C)(C)C)cc1 [PM-81I] on UniProt:P42226, pIC50 = 6.30 to 7.30

The molecule C/C(=C\C(=O)N[C@H](C(=O)N1CCC[C@H]1C(=O)N1CCCCC1)C(C)(C)C)c1ccc(C(F)(F)P(=O)(OCOC(=O)C(C)(C)C)OCOC(=O)C(C)(C)C)cc1 [PM-74I] , when measured on UniProt:P42226, yielded pIC50 of 7.30

Entry C/C(=C\C(=O)N[C@H](C(=O)N1CCC[C@H]1C(=O)N1CCCc2ccccc21)C(C)(C)C)c1ccc(C(F)(F)P(=O)(OCOC(=O)C(C)(C)C)OCOC(=O)C(C)(C)C)cc1 [PM-86I] : pIC50 on UniProt:P42226 = 6.30 to 7.30
